# System: drug-resistant 2008/MRP1 cells
# RUN_PARAMETERS: human, 3 day
Non-standard residues stand in square brackets, D forms with d. Residues, ends and D or L forms follow the SMILES beside them. 12Ado = NCCCCCCCCCCCC(=O)O
OBSERVATION_TYPE: CC50 (µM)
The figure you give is taken to be in µM; do not add the unit.

Query :: Could you share what CC50 was measured for NCCCCCCCCCCCC(=O)N[C@@H](CCCCN)C(=O)N[C@@H](CCCCN)C(=O)NCCCCCCCCCCCC(=O)N[C@@H](CCCCN)C(=O)N[C@@H](CCCCN)C(=O)NCCCCCCCCCCCC(=O)N[C@@H](CCCCN)C(=O)N[C@@H](CCCCN)C(=O)NCCCCCCCCCCCC(=O)N[C@@H](CCCCN)C(N)=O (H-[12Ado]KK[12Ado]KK[12Ado]KK[12Ado]K-NH2) , tested on drug-resistant 2008/MRP1 cells?
Result :: 4

Attribution: patent US20100173832A1
